Test system: MDA-MB-231 cells
Assay: Cell proliferation assay (CellTiter-Glo), MDA-MB-231
Format: cell-based
Settings: Homo sapiens, MDA-MB-231, 72 h, 72 h treatment, Celltiter-Glo luminescence

| COMPOUND SMILES | MEASURED TARGET | IC50 (µM) |
| --- | --- | --- |
| C[C@@H]1CN(CC(=O)N2CC(C)(C)c3c2cc(Cc2ccc(F)cc2)c2ncnn32)[C@@H](CN2Cc3ccccc3C2=O)CN1 | MDA-MB-231 cells | 0.026 |
| CC(C)c1ncc2c(Cc3ccc(F)cc3)cc3c(n12)C(C)(C)CN3C(=O)CN1C[C@@H](C)NC[C@@H]1CN1CCOC[C@H]1C | MDA-MB-231 cells | 0.16 |
| C[C@@H]1CN(CC(=O)N2CC(C)(C)c3c2cc(Cc2ccc(F)cc2)n2ncnc32)[C@@H](CN2CCOC[C@H]2C)CN1 | MDA-MB-231 cells | 0.084 |
